System: 60 different human tumor cell lines
Details: read-out: LC50; COLO 205 (Colon Cancer), five dose
CC50 reference
A bare number is not enough; add the unit after it.

Qu. What CC50 value was documented for this molecule, C[C@]12CCc3nc(Nc4ccc(O)cc4)sc3C1=CC[C@@H]1[C@@H]2CC[C@]2(C)C(=O)CC[C@@H]12 ?
Ans. 7.61 µM

Qu. Could you tell me which CC50 is on file for C[C@]12CCc3nc(N)sc3C1=CC[C@@H]1[C@@H]2CC[C@]2(C)C(=NNC(N)=O)CC[C@@H]12 ?
Ans. 9.25 µM

###

Tested on: SK-MEL-25
Assay: Melanoma cytotoxicity assay (resazurin)
Assay type: cell-based
Settings: human, 24 h
RECORDED_ENDPOINT: SK-MEL-25 (% viability) (%)
// note: answer is a bare numeric in %

Consider the reported SK-MEL-25 (% viability) for these molecules:
{"columns": ["STRUCTURE_SMILES_STRING", "VALUE_OBSERVED"],
 "data": [
  ["C[C@]12CC[C@H]3[C@@H](CC=C4c5sc(Nc6ccc(C(=O)O)cc6)nc5CC[C@@]43C)[C@@H]1CC[C@@H]2O", 37.03],
  ["CCNc1nc2c(s1)C1=CC[C@H]3[C@@H]4CC[C@H](O)[C@@]4(C)CC[C@@H]3[C@@]1(C)CC2", 5.06],
  ["CC(=O)Nc1nc2c(s1)C1=CC[C@H]3[C@@H]4CC[C@H](O)[C@@]4(C)CC[C@@H]3[C@@]1(C)CC2", 39.57]
]}

Please examine the following record next.
Qu. State its SK-MEL-25 (% viability) on SK-MEL-25: Cc1ccc(Nc2nc3c(s2)C2=CC[C@H]4[C@@H]5CC[C@H](O)[C@@]5(C)CC[C@@H]4[C@@]2(C)CC3)cc1
Ans. 7.53
